System: H3N2 (influenza virus)
Settings: H3N2 in host cell MDCK
endpoint: SI (TC50/IC50)

>>> print(df.to_string())
                                   compound  measured
0  CCCC(C)N(/N=C/c1ccccc1C(=O)O)c1nc(-c2ccccc2Cl)cs1 (centres unmarked)      0.18
1  Cc1sc(N/N=C/c2ccccc2C(=O)O)nc1-c1ccccc1 [Compound 12-1]       246
2  Cc1sc(N(C)/N=C/c2ccccc2C(=O)O)nc1-c1ccccc1       146
3  CN(/N=C/c1ccccc1C(=O)O)c1nc(-c2ccccc2)cs1        11
4  CCCN(/N=C/c1ccccc1C(=O)O)c1nc(-c2ccccc2Cl)cs1      2.08
5    O=C(O)c1ccccc1/C=N/Nc1nc(-c2ccccc2)cs1       3.3
6  Cc1ccc(/C=N/N(C)c2nc(-c3ccccc3)c(C)s2)c(C(=O)O)c1      2.72
7  CCc1sc(N/N=C/c2ccccc2C(=O)O)nc1-c1ccccc1Cl      0.16

* * *

SI (TC50/IC50) values for the compounds below.
Tested on: EV71 (hand-foot-and-mouth virus)
Settings: EV71 in host cell RD
endpoint: SI (TC50/IC50)

>>> print(df.to_string())
                             chemical_smiles        endpoint  measured
 0  O=C(O)c1ccccc1/C=N/Nc1nc(-c2cc(Cl)ccc2Cl)cs1  SI (TC50/IC50)         6
 1  O=C(O)c1ccccc1/C=N/Nc1nc(-c2ccccc2Cl)cs1  SI (TC50/IC50)       3.3
 2  Cc1ccc(/C=N/N(C)c2nc(-c3ccccc3Cl)cs2)c(C(=O)O)c1  SI (TC50/IC50)       8.3
 3  Cc1ccc(/C=N/Nc2nc(-c3ccccc3Cl)cs2)c(C(=O)O)c1  SI (TC50/IC50)         9
 4  CCN(/N=C/c1ccccc1C(=O)O)c1nc(-c2ccccc2Cl)cs1  SI (TC50/IC50)       4.3
 5  O=C(O)c1cc(F)ccc1/C=N/Nc1nc(-c2ccccc2Cl)cs1  SI (TC50/IC50)       5.6
 6  CN(/N=C/c1ccc(F)cc1C(=O)O)c1nc(-c2ccccc2Cl)cs1  SI (TC50/IC50)        10
 7  CN(/N=C/c1ccccc1C(=O)O)c1nc(-c2ccccc2Cl)cs1  SI (TC50/IC50)       7.1
 8   Cc1sc(N/N=C/c2ccccc2C(=O)O)nc1-c1ccccc1  SI (TC50/IC50)         5
 9  O=C(O)c1cc(C(F)(F)F)ccc1/C=N/Nc1nc(-c2ccccc2Cl)cs1  SI (TC50/IC50)      10.5
10  CN(/N=C/c1ccc(C(F)(F)F)cc1C(=O)O)c1nc(-c2ccccc2Cl)cs1  SI (TC50/IC50)        11
11  O=C(O)c1cc(F)c(F)cc1/C=N/Nc1nc(-c2ccccc2Cl)cs1  SI (TC50/IC50)       5.4
12  Cc1sc(N(C)/N=C/c2ccccc2C(=O)O)nc1-c1ccccc1  SI (TC50/IC50)         4

* * *

Tested on: JEV (Japanese encephalitis virus)
Assay: Inhibition of viral replication (CPE) at cellular level, JEV in Vero
Settings: JEV in host cell Vero
SI (TC50/IC50) values for the molecules below.
endpoint: SI (TC50/IC50)

                             chemical_smiles  measured
 0  Cc1ccc(/C=N/Nc2nc(-c3ccccc3Cl)cs2)c(C(=O)O)c1       100
 1  CN(/N=C/c1ccc(F)cc1C(=O)O)c1nc(-c2ccccc2Cl)cs1       216
 2  O=C(O)c1cc(F)c(F)cc1/C=N/Nc1nc(-c2ccccc2Cl)cs1       124
 3  CCN(/N=C/c1ccccc1C(=O)O)c1nc(-c2ccccc2Cl)cs1      45.7
 4  CN(/N=C/c1ccccc1C(=O)O)c1nc(-c2ccccc2Cl)cs1        80
 5  Cc1ccc(/C=N/N(C)c2nc(-c3ccccc3Cl)cs2)c(C(=O)O)c1      73.3
 6  CN(/N=C/c1ccc(C(F)(F)F)cc1C(=O)O)c1nc(-c2ccccc2Cl)cs1       170
 7  Cc1sc(N(C)/N=C/c2ccccc2C(=O)O)nc1-c1ccccc1       100
 8  O=C(O)c1cc(F)ccc1/C=N/Nc1nc(-c2ccccc2Cl)cs1       306
 9  O=C(O)c1ccccc1/C=N/Nc1nc(-c2ccccc2Cl)cs1       100
10   Cc1sc(N/N=C/c2ccccc2C(=O)O)nc1-c1ccccc1     138.7
11  O=C(O)c1cc(C(F)(F)F)ccc1/C=N/Nc1nc(-c2ccccc2Cl)cs1       156

* * *

Experiment: in vitro
Conditions: dog, TC50, host cell MDCK, H1N1 table
CC50 values for the compounds below.
endpoint: CC50 (µM)

In [3]: df
Out[3]:
                                   compound  measured
0  CCCC(C)N(/N=C/c1ccccc1C(=O)O)c1nc(-c2ccccc2Cl)c(C)s1 (centres unmarked)       148
1  Cc1ccc(/C=N/N(C)c2nc(-c3ccccc3)c(C)s2)c(C(=O)O)c1       241
2  Cc1sc(N/N=C/c2ccccc2C(=O)O)nc1-c1ccccc1Cl       412
3  CN(/N=C/c1cc(F)c(F)cc1C(=O)O)c1nc(-c2ccccc2Cl)cs1        87
4  CN(/N=C/c1ccccc1C(=O)O)c1nc(-c2cc(Cl)ccc2Cl)cs1        26
5  CCCC(C)N(/N=C/c1ccccc1C(=O)O)c1nc(-c2ccccc2Cl)cs1 (centres unmarked)       451
6  CN(/N=C/c1ccccc1C(=O)O)c1nc(-c2ccccc2)cs1        57
7  CC(C)N(/N=C/c1ccccc1C(=O)O)c1nc(-c2ccccc2Cl)cs1        23

* * *

Test system: influenza virus
Assay: microbe, parasite or virus in culture
Format: cell-based
Conditions: unidentified influenza virus, MDCK, read-out: inhibitory effect on influenza virus
pIC50: −log10 of the molar value.
endpoint: pIC50

>>> print(df.to_string())
                            chemical_smiles  measured
0  O=C(O)c1ccccc1/C=N/Nc1nc(-c2ccccc2Cl)cs1     ~5.70

* * *

Test system: JEV (Japanese encephalitis virus)
Experiment: Inhibition of viral replication (CPE) at cellular level, JEV in Vero
Conditions: Japanese encephalitis virus, Vero
pIC50: −log10 of the molar value.
pIC50 values for the molecules below.
endpoint: pIC50

>>> print(df.to_string())
                            chemical_smiles                                tgt  measured
0  O=C(O)c1cc(F)c(F)cc1/C=N/Nc1nc(-c2ccccc2Cl)cs1  JEV (Japanese encephalitis virus)      6.54
1  O=C(O)c1cc(C(F)(F)F)ccc1/C=N/Nc1nc(-c2ccccc2Cl)cs1  JEV (Japanese encephalitis virus)      6.64
2  Cc1sc(N(C)/N=C/c2ccccc2C(=O)O)nc1-c1ccccc1  JEV (Japanese encephalitis virus)      6.89

* * *

System: Zika Virus
Test: Inhibition of viral replication (CPE) at cellular level, Zika Virus in Vero
Conditions: Zika Virus in host cell Vero
endpoint: SI (TC50/IC50)

                                   compound         tgt  measured
0  CCN(/N=C/c1ccccc1C(=O)O)c1nc(-c2ccccc2Cl)cs1 [Compound 2]  Zika Virus        53
1  CN(/N=C/c1ccc(F)cc1C(=O)O)c1nc(-c2ccccc2Cl)cs1 [Compound 10]  Zika Virus       350
2  CN(/N=C/c1ccc(C(F)(F)F)cc1C(=O)O)c1nc(-c2ccccc2Cl)cs1 [Compound 8]  Zika Virus       158
3  O=C(O)c1cc(C(F)(F)F)ccc1/C=N/Nc1nc(-c2ccccc2Cl)cs1 [Compound 8-1]  Zika Virus       264

* * *

System: H7N9 (influenza virus)
Conditions: H7N9 in host cell MDCK
SI (TC50/IC50) values for the compounds below.
endpoint: SI (TC50/IC50)

                            chemical_smiles                     tgt  measured
0  O=C(O)c1cc(F)c(F)cc1/C=N/Nc1nc(-c2ccccc2Cl)cs1  H7N9 (influenza virus)       152
1  CN(/N=C/c1ccc(F)cc1C(=O)O)c1nc(-c2ccccc2Cl)cs1  H7N9 (influenza virus)       161
2  Cc1sc(N(C)/N=C/c2ccccc2C(=O)O)nc1-c1ccccc1  H7N9 (influenza virus)        54
